These measurements were taken from ChEMBL document CHEMBL1152473.

Test system: Pseudomonas aeruginosa
assayOverview: Antibacterial activity against Pseudomonas aeruginosa ATCC 9027 after 18 to 24 hrs by liquid broth method
Type: functional
Activity calls are given as the source filed them. No cut-off for these calls is given here.
assayMetric: MIC

Example entries and their recorded answers appear below.
>>> measuredvalue("O=S(=O)(c1ccccc1)c1ccc(-c2n[nH]c(=S)n2/N=C/c2ccccc2)cc1")
"1020 µg/mL"
>>> measuredvalue("CCCn1c(S)nnc1-c1ccc(S(=O)(=O)c2ccc(Br)cc2)cc1")
"inactive"
>>> measuredvalue("O=S(=O)(c1ccccc1)c1ccc(-c2n[nH]c(=S)n2/N=C/c2ccco2)cc1")
"256 µg/mL"
>>> measuredvalue("COc1ccccc1/C=N/n1c(-c2ccc(S(=O)(=O)c3ccccc3)cc2)n[nH]c1=S")
"512 µg/mL"
>>> measuredvalue("O=S(=O)(c1ccccc1)c1ccc(-c2nn(CN3CCOCC3)c(=S)n2/N=C/c2ccccc2)cc1")
"> 1020 µg/mL"
>>> measuredvalue("Nn1c(-c2ccc(S(=O)(=O)c3ccc(Cl)cc3)cc2)n[nH]c1=S")
"inactive"

Turning to the following compound.
q: Param readout = MIC; param system = Pseudomonas aeruginosa; param query = O=C(N[C@H](CO)[C@H](O)c1ccc([N+](=O)[O-])cc1)C(Cl)Cl ; response: value
a: 64 µg/mL

====

Tested on: Bacillus subtilis
assayOverview: Antibacterial activity against Bacillus subtilis ATCC 6633 after 18 to 24 hrs by liquid broth method
Type: functional
Activity calls are given as the source filed them. The calls are words filed in the database; no cut-off is given here.
assayMetric: MIC

# count of solved cases: 5
>>> measuredvalue("O=S(=O)(c1ccc(Cl)cc1)c1ccc(-c2n[nH]c(=S)n2/N=C/c2ccccc2)cc1")
"inactive"
>>> measuredvalue("O=S(=O)(c1ccccc1)c1ccc(-c2n[nH]c(=S)n2/N=C/c2ccccc2)cc1")
"inactive"
>>> measuredvalue("Nn1c(-c2ccc(S(=O)(=O)c3ccc(Cl)cc3)cc2)n[nH]c1=S")
"1020 µg/mL"
>>> measuredvalue("CCCn1c(S)nnc1-c1ccc(S(=O)(=O)c2ccccc2)cc1")
"> 1020 µg/mL"
>>> measuredvalue("O=S(=O)(c1ccccc1)c1ccc(-c2n[nH]c(=S)n2/N=C/c2ccco2)cc1")
"inactive"

q: Quick one: MIC of O=[N+]([O-])c1cccc(/C=N/n2c(-c3ccc(S(=O)(=O)c4ccccc4)cc3)nn(CN3CCOCC3)c2=S)c1 ?
a: 1020 µg/mL

q: Give the measured MIC of CN(C)c1ccc(/C=N/n2c(-c3ccc(S(=O)(=O)c4ccccc4)cc3)nn(CN3CCOCC3)c2=S)cc1 .
a: 512 µg/mL

q: Name the recorded MIC for CCCn1c(S)nnc1-c1ccc(S(=O)(=O)c2ccc(Cl)cc2)cc1 .
a: 1020 µg/mL

q: What MIC value was documented for this molecule, O=[N+]([O-])c1cccc(/C=N/n2c(-c3ccc(S(=O)(=O)c4ccccc4)cc3)n[nH]c2=S)c1 ?
a: 512 µg/mL

====

Test system: Acinetobacter baumannii
assayOverview: Antibacterial activity against Acinetobacter baumannii ATCC 19606 after 18 to 24 hrs by liquid broth method
Assay type: functional
statedConditions: ATCC 19606 = CIP 70.34 = JCM 6841
assayMetric: MIC (µg/mL)

>>> measuredvalue("COc1ccccc1/C=N/n1c(-c2ccc(S(=O)(=O)c3ccccc3)cc2)n[nH]c1=S")
256
>>> measuredvalue("O=S(=O)(c1ccc(Cl)cc1)c1ccc(-c2n[nH]c(=S)n2/N=C/c2ccccc2)cc1")
512

(P) O=S(=O)(c1ccc(Cl)cc1)c1ccc(-c2nn(CN3CCOCC3)c(=S)n2/N=C/c2ccccc2)cc1
(Q) O=S(=O)(c1ccccc1)c1ccc(-c2n[nH]c(=S)n2/N=C/c2ccco2)cc1
q: Select the item with the higher value of MIC from the options P and Q listed. # answer = label of selected item
a: P
(P: 1020 µg/mL, Q: 128 µg/mL)

====

System: Pseudomonas aeruginosa
assayOverview: Antibacterial activity against Pseudomonas aeruginosa ATCC 9027 after 18 to 24 hrs by liquid broth method
Format: functional
assayMetric: MIC (µg/mL)

>>> measuredvalue("O=S(=O)(c1ccc(Cl)cc1)c1ccc(-c2n[nH]c(=S)n2/N=C/c2ccccc2)cc1")
512
>>> measuredvalue("O=S(=O)(c1ccccc1)c1ccc(-c2nn(CN3CCOCC3)c(=S)n2/N=C/c2ccco2)cc1")
512

====

Tested on: Acinetobacter baumannii
assayOverview: Antibacterial activity against Acinetobacter baumannii ATCC 19606 after 18 to 24 hrs by liquid broth method
Format: functional
statedConditions: ATCC 19606 = CIP 70.34 = JCM 6841
assayMetric: MIC (µg/mL)

For orientation, consider the following solved cases.
>>> measuredvalue("Nn1c(-c2ccc(S(=O)(=O)c3ccccc3)cc2)n[nH]c1=S")
512
>>> measuredvalue("CCCn1c(S)nnc1-c1ccc(S(=O)(=O)c2ccc(Br)cc2)cc1")
1020
>>> measuredvalue("COc1ccccc1/C=N/n1c(-c2ccc(S(=O)(=O)c3ccccc3)cc2)nn(CN2CCOCC2)c1=S")
512

(a) CN(C)c1ccc(/C=N/n2c(-c3ccc(S(=O)(=O)c4ccccc4)cc3)n[nH]c2=S)cc1
(b) CN(C)c1ccc(/C=N/n2c(-c3ccc(S(=O)(=O)c4ccccc4)cc3)nn(CN3CCOCC3)c2=S)cc1
q: Select the item with the higher value of MIC from the options a and b listed. Give the chosen item's label as your response.
a: b
(b: 1020 µg/mL, a: 512 µg/mL)

(A) O=[N+]([O-])c1cccc(/C=N/n2c(-c3ccc(S(=O)(=O)c4ccccc4)cc3)nn(CN3CCOCC3)c2=S)c1
(B) Nn1c(-c2ccc(S(=O)(=O)c3ccc(Cl)cc3)cc2)n[nH]c1=S
q: Which is greater in MIC, the first item A or the second item B ? When you have decided, please share the label of that item.
a: A

====

MIC: recorded values
Test system: Bacillus subtilis
assayOverview: Antibacterial activity against Bacillus subtilis ATCC 6633 after 18 to 24 hrs by liquid broth method
Type: functional

Example results:
>>> measuredvalue("Nn1c(-c2ccc(S(=O)(=O)c3ccccc3)cc2)n[nH]c1=S")
"1020 µg/mL"
>>> measuredvalue("COc1ccccc1/C=N/n1c(-c2ccc(S(=O)(=O)c3ccccc3)cc2)nn(CN2CCOCC2)c1=S")
"512 µg/mL"
>>> measuredvalue("O=C(N[C@H](CO)[C@H](O)c1ccc([N+](=O)[O-])cc1)C(Cl)Cl")
"64 µg/mL"
>>> measuredvalue("CCCn1c(-c2ccc(S(=O)(=O)c3ccc(Br)cc3)cc2)nn(CN2CCOCC2)c1=S")
"> 1020 µg/mL"
>>> measuredvalue("COc1ccccc1/C=N/n1c(-c2ccc(S(=O)(=O)c3ccccc3)cc2)n[nH]c1=S")
"128 µg/mL"
>>> measuredvalue("CCCn1c(-c2ccc(S(=O)(=O)c3ccc(Cl)cc3)cc2)nn(CN2CCOCC2)c1=S")
"> 1020 µg/mL"
>>> measuredvalue("CCCn1c(-c2ccc(S(=O)(=O)c3ccccc3)cc2)nn(CN2CCOCC2)c1=S")
"> 1020 µg/mL"

Below: the item to evaluate.
q: Consider the compound shown here: O=S(=O)(c1ccccc1)c1ccc(-c2nn(CN3CCOCC3)c(=S)n2/N=C/c2ccco2)cc1 What is its recorded MIC?
a: 1020 µg/mL

====

Test system: Acinetobacter baumannii
assayOverview: Antibacterial activity against Acinetobacter baumannii ATCC 19606 after 18 to 24 hrs by liquid broth method
Type: functional
statedConditions: ATCC 19606 = CIP 70.34 = JCM 6841
Measured MIC, listed per entry for reference.

Example results:
>>> measuredvalue("CCCn1c(-c2ccc(S(=O)(=O)c3ccc(Br)cc3)cc2)nn(CN2CCOCC2)c1=S")
"> 1020 mg/L"
>>> measuredvalue("O=S(=O)(c1ccccc1)c1ccc(-c2nn(CN3CCOCC3)c(=S)n2/N=C/c2ccccc2)cc1")
"> 1020 mg/L"
>>> measuredvalue("CCCn1c(-c2ccc(S(=O)(=O)c3ccc(Cl)cc3)cc2)nn(CN2CCOCC2)c1=S")
"> 1020 mg/L"

Next compound, please.
q: Find the measured MIC: item CCCn1c(S)nnc1-c1ccc(S(=O)(=O)c2ccc(Cl)cc2)cc1 , target or system Acinetobacter baumannii.
a: > 1020 mg/L

====

Test system: Pseudomonas aeruginosa
assayOverview: Antibacterial activity against Pseudomonas aeruginosa ATCC 9027 after 18 to 24 hrs by liquid broth method
Type: functional
Each entry below lists one item and its recorded MIC value.

q: Please look up its MIC: Nn1c(-c2ccc(S(=O)(=O)c3ccccc3)cc2)n[nH]c1=S
a: > 1020 µg/mL

q: Entry CN(C)c1ccc(/C=N/n2c(-c3ccc(S(=O)(=O)c4ccccc4)cc3)n[nH]c2=S)cc1 has what MIC?
a: > 1020 µg/mL

q: What value of measured MIC is listed for CCCn1c(-c2ccc(S(=O)(=O)c3ccc(Br)cc3)cc2)nn(CN2CCOCC2)c1=S ?
a: > 1020 µg/mL
